Reported Inhibition of enzyme activity, % of control: HK2 values are given for each entry in this list.
tested on: hexokinase II; assay: Glycolytic enzyme activity in treated cells (colorimetric kit); assay type: cell-based, human; settings: MCF-7 cells, 24-h incubation, 1/2 IC50

Requested read-out: Inhibition of enzyme activity, % of control: HK2. Entry: O=C1C(Cl)=C(Br)C(=O)c2c1nc1n2CCOC1 [Compound 6f]
30.83 % of control

Requested read-out: Inhibition of enzyme activity, % of control: HK2. Entry: O=C1C(Cl)=C(Br)C(=O)c2c1nc1n2CCCC1 [Compound 6c]
36.01 % of control

Requested read-out: Inhibition of enzyme activity, % of control: HK2. Entry: CC1CCn2c(nc3c2C(=O)C(Br)=C(Cl)C3=O)C1 (stereo not shown) [Compound 6e]
36.22 % of control

Requested read-out: Inhibition of enzyme activity, % of control: HK2. Entry: O=C1C(Br)=C(Cl)C(=O)c2c1nc1n2CCCC1 [Compound 6b]
34.25 % of control

---

Tested on: MCF-7
Experiment: MTT cytotoxicity assay
Type: cell-based
Details: MCF7, Human breast adenocarcinoma cells, 24 h, read-out: IC50 of Cytotoxic Effect, MCF-7
Procedure: Human lung adenocarcinoma A549 cells, breast carcinoma MCF-7 cells, colon adenocarcinoma SW480 cells, neuroblastoma SH-SY5Y cells, and normal human embryonic kidney HEK-293 cells were obtained from the collection of the Institute of Cytology of the Russian Academy of Sciences (Saint Petersburg, Russia). […] Following a 24-h incubation with the compounds, 5 mg/mL MTT solution was added to each well, and the cells were incubated at 37 °C for 2 h. […] Optical density was measured at a wavelength of 540 nm. […]
metric_name: IC50 (µM)
Reply with just the number (in µM).

Solved entries:
INSERT INTO assay_data (compound, reading) VALUES
  ('O=C1C(Cl)=C(Cl)C(=O)c2c1nc1n2CCCC1 [Compound 6d]', 8.52),
  ('O=C1C(Cl)=C(Br)C(=O)c2c1nc1n2CCCC1 [Compound 6c]', 8.35);

Requested read-out: IC50. Entry: O=C1C(Br)=C(Br)C(=O)c2c1nc1n2CCCC1 [Compound 6a]
8.81

---

molecular target: pyruvate kinase M2 (Homo sapiens, UniProt P14618); construct: activity of rate-limiting glycolytic enzymes—hexokinase II, phosphofructokinase I, and pyruvate kinase M2—in MCF-7 cells; endogenous in cells; assay: Glycolytic enzyme activity in treated cells (colorimetric kit); assay type: cell-based; settings: MCF-7 cells, 24-h incubation, 1/2 IC50
Sequence (P14618 whole entry): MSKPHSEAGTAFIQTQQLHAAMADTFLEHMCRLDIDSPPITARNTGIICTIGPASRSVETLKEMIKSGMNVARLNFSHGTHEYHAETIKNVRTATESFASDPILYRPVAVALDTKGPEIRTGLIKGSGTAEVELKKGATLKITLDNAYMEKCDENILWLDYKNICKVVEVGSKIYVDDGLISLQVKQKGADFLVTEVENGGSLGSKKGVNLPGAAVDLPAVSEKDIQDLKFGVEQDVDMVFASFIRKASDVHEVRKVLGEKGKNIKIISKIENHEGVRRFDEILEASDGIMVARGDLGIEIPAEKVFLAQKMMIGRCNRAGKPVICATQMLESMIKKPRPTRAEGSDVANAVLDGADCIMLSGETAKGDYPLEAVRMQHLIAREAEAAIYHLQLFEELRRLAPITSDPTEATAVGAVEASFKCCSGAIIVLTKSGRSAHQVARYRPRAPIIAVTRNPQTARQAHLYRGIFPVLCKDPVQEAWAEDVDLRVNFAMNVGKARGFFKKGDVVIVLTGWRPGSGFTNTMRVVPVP
metric_name: Inhibition of enzyme activity, % of control: PKM2

Solved entries:
INSERT INTO results (molecule, reading) VALUES
  ('O=C1C(Cl)=C(Cl)C(=O)c2c1nc1n2CCCC1', '9.48 % of control'),
  ('O=C1C(Br)=C(Br)C(=O)c2c1nc1n2CCCC1', '11.39 % of control'),
  ('O=C1C(Br)=C(Cl)C(=O)c2c1nc1n2CCCC1', '14.85 % of control'),
  ('CC1CCn2c(nc3c2C(=O)C(Br)=C(Cl)C3=O)C1 (stereo not drawn)', '8.36 % of control'),
  ('O=C1C(Cl)=C(Br)C(=O)c2c1nc1n2CCCC1', '13.57 % of control');

# input for lookup
Requested read-out: Inhibition of enzyme activity, % of control: PKM2. Entry: O=C1C(Cl)=C(Br)C(=O)c2c1nc1n2CCOC1
12.09 % of control

---

assay: MTT cytotoxicity assay, whole cell line panel; format: cell-based; conditions: human; summary of Table 1 over all five cell lines; read-out: IC50 values of the cytotoxic effect, range over the cell lines
metric_name: IC50 at 24 h

Requested read-out: IC50 at 24 h. Entry: CO[C@@]12[C@H](COC(N)=O)C3=C(C(=O)C(C)=C(N)C3=O)N1C[C@@H]1N[C@@H]12 [Mytomycin C, Mitomycin C, reference compound]
8 to 20 µM

---

test: MTT cytotoxicity assay; format: cell-based; details: HEK-293 cells (normal embryonic kidney), Human embryonic kidney (normal origin), read-out: IC50 of Cytotoxic Effect, Hek-293
Cut-off 20 µM on IC50 at 24 h: below means satisfied, at or above means not satisfied.

Use the examples below as a reference point.
INSERT INTO results (compound, group) VALUES
  ('O=C1C(Br)=C(Br)C(=O)c2c1nc1n2CCCC1', 'not satisfied'),
  ('O=C1C(Cl)=C(Cl)C(=O)c2c1nc1n2CCCC1', 'satisfied'),
  ('O=C1C(Cl)=C(Br)C(=O)c2c1nc1n2CCOC1', 'not satisfied'),
  ('O=C1C(Br)=C(Cl)C(=O)c2c1nc1n2CCCC1', 'satisfied'),
  ('O=C1C(Cl)=C(Br)C(=O)c2c1nc1n2CCCC1', 'satisfied');

Attention now shifts to the item below.
Say whether its IC50 at 24 h is strictly beneath 20 µM. Entry: CO[C@@]12[C@H](COC(N)=O)C3=C(C(=O)C(C)=C(N)C3=O)N1C[C@@H]1N[C@@H]12 [Mytomycin C, Mitomycin C, reference compound]
satisfied

---

system: MCF-7; assay: MTT cytotoxicity assay; assay type: cell-based; conditions: MCF7, Human breast adenocarcinoma cells, 24 h, read-out: IC50 of Cytotoxic Effect, MCF-7
metric_name: IC50 (µM)
Reply with just the number (in µM).

INSERT INTO results (compound, metric_name, units_label, reading) VALUES
  ('O=C1C(Br)=C(Cl)C(=O)c2c1nc1n2CCCC1', 'IC50', 'µM', 7.79);

Requested read-out: IC50. Entry: CC1CCn2c(nc3c2C(=O)C(Br)=C(Cl)C3=O)C1 (stereo not shown)
8.97

Requested read-out: IC50. Entry: O=C1C(Cl)=C(Br)C(=O)c2c1nc1n2CCOC1
8.9

Requested read-out: IC50. Entry: CO[C@@]12[C@H](COC(N)=O)C3=C(C(=O)C(C)=C(N)C3=O)N1C[C@@H]1N[C@@H]12 [Mytomycin C, Mitomycin C, reference compound]
20.4
